meta.source: patent US6685617B1

# test_target: α4β1 integrin (Jurkat cell adhesion to immobilized CS-1 derived peptide CLHPGEILDVPST) (Homo sapiens, UniProt P05556+P13612)
# Construct: 100 μl of Jurkat cells (2.5×10^6 cells/ml) in DMEM plus BSA
# Sequence (P13612 34-1032): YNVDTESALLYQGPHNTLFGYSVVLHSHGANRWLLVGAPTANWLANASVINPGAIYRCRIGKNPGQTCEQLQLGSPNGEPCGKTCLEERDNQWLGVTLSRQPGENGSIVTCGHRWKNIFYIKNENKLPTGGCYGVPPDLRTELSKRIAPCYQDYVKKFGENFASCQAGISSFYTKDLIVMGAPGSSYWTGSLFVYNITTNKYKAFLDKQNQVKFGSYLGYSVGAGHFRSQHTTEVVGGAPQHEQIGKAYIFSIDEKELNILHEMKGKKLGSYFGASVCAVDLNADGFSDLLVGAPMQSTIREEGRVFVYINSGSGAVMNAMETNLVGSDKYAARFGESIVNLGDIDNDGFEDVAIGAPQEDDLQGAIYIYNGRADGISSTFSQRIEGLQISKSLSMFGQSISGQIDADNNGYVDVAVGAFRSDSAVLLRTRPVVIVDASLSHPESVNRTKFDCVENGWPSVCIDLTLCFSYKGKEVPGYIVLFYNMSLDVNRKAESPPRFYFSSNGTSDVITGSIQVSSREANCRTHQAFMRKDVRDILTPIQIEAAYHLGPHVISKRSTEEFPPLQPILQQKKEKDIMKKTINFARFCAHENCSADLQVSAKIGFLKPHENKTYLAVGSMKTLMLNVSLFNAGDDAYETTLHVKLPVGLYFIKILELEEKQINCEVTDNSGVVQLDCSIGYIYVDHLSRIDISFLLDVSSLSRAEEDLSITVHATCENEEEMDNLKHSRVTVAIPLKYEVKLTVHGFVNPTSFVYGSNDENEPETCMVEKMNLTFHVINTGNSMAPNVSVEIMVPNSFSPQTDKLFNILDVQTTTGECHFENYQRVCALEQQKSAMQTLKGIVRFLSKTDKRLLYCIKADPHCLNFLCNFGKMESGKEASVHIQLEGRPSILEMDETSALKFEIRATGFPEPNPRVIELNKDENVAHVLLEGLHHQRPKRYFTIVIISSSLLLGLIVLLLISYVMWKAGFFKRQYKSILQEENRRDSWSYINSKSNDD
# Sequence (P05556 21-798): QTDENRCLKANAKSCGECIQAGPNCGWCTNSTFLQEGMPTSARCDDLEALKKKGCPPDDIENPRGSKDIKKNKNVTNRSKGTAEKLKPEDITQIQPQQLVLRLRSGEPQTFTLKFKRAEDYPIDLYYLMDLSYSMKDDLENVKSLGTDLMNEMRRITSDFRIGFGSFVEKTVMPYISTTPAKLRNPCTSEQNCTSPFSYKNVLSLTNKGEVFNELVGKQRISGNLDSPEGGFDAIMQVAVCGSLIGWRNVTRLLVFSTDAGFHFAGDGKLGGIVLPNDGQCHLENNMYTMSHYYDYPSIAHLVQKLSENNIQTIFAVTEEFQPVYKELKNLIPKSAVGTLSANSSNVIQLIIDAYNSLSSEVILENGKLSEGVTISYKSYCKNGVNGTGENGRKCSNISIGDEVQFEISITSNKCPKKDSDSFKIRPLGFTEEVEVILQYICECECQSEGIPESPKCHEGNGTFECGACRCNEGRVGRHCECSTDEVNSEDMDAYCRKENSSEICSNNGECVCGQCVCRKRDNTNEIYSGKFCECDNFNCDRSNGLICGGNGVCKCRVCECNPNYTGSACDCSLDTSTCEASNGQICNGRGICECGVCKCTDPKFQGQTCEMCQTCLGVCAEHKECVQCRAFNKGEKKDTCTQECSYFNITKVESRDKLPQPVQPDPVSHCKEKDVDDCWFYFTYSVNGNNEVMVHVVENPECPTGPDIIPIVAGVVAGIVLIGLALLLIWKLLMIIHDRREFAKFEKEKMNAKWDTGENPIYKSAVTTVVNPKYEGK
# procedure_text: Jurkat-CS-1 assay
# condition_summary: Jurkat cells on CS-1 peptide coated plates; read-out: JK/CS-1 (Jurkat CS-1 Assay IC50 value range)
attribute_measured: IC50

In the examples that follow, each entry is paired with its recorded IC50.
                                   molecule        result
0  O=C(O)c1ccccc1C(=O)N1CCCC(C(=O)N[C@@H](Cc2ccc(NC(=O)c3c(Cl)cccc3Cl)cc2)C(=O)O)C1 (stereo partly drawn) [Example 204]  50 to 750 nM
1  O=C(Nc1ccc(C[C@H](NC(=O)[C@H]2CSCN2C(=O)OCc2ccccn2)C(=O)O)cc1)c1c(Cl)cccc1Cl (relative stereo) [Example 149]       ≤ 50 nM
2  CC(C)(C)OC(=O)N1CCSC[C@H]1C(=O)N[C@@H](Cc1ccc(NC(=O)c2c(Cl)cccc2Cl)cc1)C(=O)O (relative stereo) [Example 100]  50 to 750 nM
3  CC1(C)N[C@H](C(=O)N[C@@H](Cc2ccc(NC(=O)c3c(Cl)cccc3Cl)cc2)C(=O)O)CS1 [Example 74]  50 to 750 nM
4  O=C(O)c1cncc(C(=O)N2CCCC(C(=O)N[C@@H](Cc3ccc(NC(=O)c4c(Cl)cccc4Cl)cc3)C(=O)O)C2)c1 (stereo partly drawn) [Example 207]  50 to 750 nM

Let's switch to this molecule now.
Query IC50 for COC(=O)[C@H](Cc1ccc(NC(=O)c2c(Cl)cccc2Cl)cc1)NC(=O)[C@@H]1CSCN1C(=O)OC(C)(C)C (stereo in doubt) [Example 13]
≥ 750 nM
